Molecular target: ATP-binding cassette sub-family B member 6 (Homo sapiens) (UniProt Q9NP58)
Sequence (Q9NP58 whole entry, looked up): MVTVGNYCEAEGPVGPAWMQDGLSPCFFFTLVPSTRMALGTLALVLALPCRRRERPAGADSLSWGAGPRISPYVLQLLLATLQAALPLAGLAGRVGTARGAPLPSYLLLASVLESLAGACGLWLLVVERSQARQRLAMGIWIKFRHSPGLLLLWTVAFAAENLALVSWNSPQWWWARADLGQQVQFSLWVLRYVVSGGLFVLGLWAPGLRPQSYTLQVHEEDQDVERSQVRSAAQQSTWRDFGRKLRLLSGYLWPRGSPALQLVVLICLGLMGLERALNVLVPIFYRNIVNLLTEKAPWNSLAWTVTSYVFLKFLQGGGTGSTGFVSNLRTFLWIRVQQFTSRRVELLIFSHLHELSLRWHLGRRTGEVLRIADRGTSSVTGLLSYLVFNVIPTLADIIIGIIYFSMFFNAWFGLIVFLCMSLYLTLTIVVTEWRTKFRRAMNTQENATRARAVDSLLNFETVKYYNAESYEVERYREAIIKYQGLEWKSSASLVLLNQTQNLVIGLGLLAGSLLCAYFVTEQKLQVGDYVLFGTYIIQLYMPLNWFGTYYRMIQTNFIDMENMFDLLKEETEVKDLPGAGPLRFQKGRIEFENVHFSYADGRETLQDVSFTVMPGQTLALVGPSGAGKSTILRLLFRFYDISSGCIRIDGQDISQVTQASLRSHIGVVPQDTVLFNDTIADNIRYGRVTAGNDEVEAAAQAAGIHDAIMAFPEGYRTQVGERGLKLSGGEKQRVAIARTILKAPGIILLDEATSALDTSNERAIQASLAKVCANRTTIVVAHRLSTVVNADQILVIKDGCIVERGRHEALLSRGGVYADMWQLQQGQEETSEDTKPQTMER
Test: blockers of ABCB6-driven porphyrin uptake – K562-ABCB6 cells, flow cytometry, validation set, pilot screen (AID 588550);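 further: 0% = DMSO wells and 100% = benzethonium chloride 70 µM positive control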
Conditions: K562-ABCB6 porphyrin accumulation, 1 h, at 10 µM, active compounds read high

{"columns": ["compound", "inhibition [%]"],
 "data": [
  ["CC(C)CCc1noc(CN2CCC(CCN3CCCC3=O)CC2)n1", -3],
  ["O=C(N1CCCC1)C12CC3CC(C1)CC(C(=O)N1CCCC1)(C3)C2", 3],
  ["CC(=O)Nc1ccc(S(=O)(=O)c2ccc(N)cc2)cc1", 8],
  ["CC1(C)CC(c2csc(N)n2)CCO1 (centres undefined)", -3],
  ["CCN1CCN(C(=S)c2ccc(OC)cc2)CC1", 9],
  ["COc1c2c(nc3occc13)C(CC=C(C)C)(OC)C(O)CC2 (centres undefined)", 11],
  ["CC(=O)N1CCN(c2ccc(NC(=O)/C=C/c3ccccc3)cc2)CC1", -1],
  ["CC1CCc2cc(F)cc3c(=O)c(C(=O)O)cn1c23 (centres undefined)", -15],
  ["CCn1c(C)cc2c(c1=O)C(c1ccccc1)C(C(=O)OC)=C(N)O2 (centres undefined)", 7],
  ["COc1ccc(-c2[nH]ncc2CN(CCO)Cc2cccs2)c(F)c1", -5],
  ["O=C(O)[C@H](Cc1ccccc1)NC(=O)N1CCC(Cc2ccccc2)CC1", 6],
  ["COc1cc(CNc2nnnn2C)ccc1OCc1ccc(F)cc1Cl", 7],
  ["CCSC(SCC)[C@H](O)[C@@H](O)[C@H](O)[C@H](O)CO", 6],
  ["CC(C)COC(=O)C1C(=O)CC(C)(O)C(C(=O)OCC(C)C)C1c1cccnc1 (centres undefined)", 18],
  ["CC12CN3CC(C)(CN(C1)C3c1ccc(Br)cc1O)C2 (centres undefined)", -1],
  ["CCCCCC#CCC#CCC#CCC#CCCCC(=O)O", 2],
  ["CCc1cc2c(=O)c(-c3nc(C)cs3)c(CCCC(=O)O)oc2cc1O", -3],
  ["CC(C)N1C(=O)/C(=C\\c2nc3ccccc3c(=O)[nH]2)c2ccccc21", 6],
  ["COC(=O)c1[nH]c(=O)c2ccccc2c1O", 109],
  ["Cc1cccc(C)c1NC(=O)C1CCCCN1C (centres undefined)", 1],
  ["CC(C)OC(=O)C1C(=O)CC(C)(O)C(C(=O)OC(C)C)C1c1cccc(O)c1 (centres undefined)", -13],
  ["COC(=O)c1ccccc1NC(=O)NCc1ccccc1", 15],
  ["CC1CC(OC(=O)C(O)c2ccccc2)CC(C)(C)N1C (centres undefined)", 5],
  ["Cn1c(=O)c(C(=O)NCCO)c(O)c2ccccc21", 1],
  ["CCN1CCn2c3c(c4cc(Cl)ccc42)CCCC31 (centres undefined)", -8],
  ["Cc1cc(OC(=O)CNC(=O)OC(C)(C)C)c2c(C)cc(=O)oc2c1", 2],
  ["FC(F)(F)c1ccc(-c2noc(CN3CCCN(C4CCCCC4)CC3)n2)cc1", -11],
  ["O=C(O)CCCCCNC(=O)Nc1ccc2c(c1)OCCO2", 7],
  ["COC(=O)[C@@H](N)CS", 4]
]}
